Listed here: items and their measured switch fluorescence ratio.
# Tested on: ATP;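 note: ATP exposure 15 min at 22 °C before imaging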
# procedureText: switch fluorescence ratio, 500 uM ATP over buffer (Cy3 cluster intensity, sum of 5 cycles each) (fold (ratio)); higher = stronger signal-on switching upon ATP binding; sequences stand for … in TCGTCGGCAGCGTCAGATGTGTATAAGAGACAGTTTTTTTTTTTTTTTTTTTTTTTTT…TC
# cond: aptamer strand: ATP DNA aptamer (quencher-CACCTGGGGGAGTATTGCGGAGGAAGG + anchor), 100 nM annealed; ATP concentration: 500 uM

Sample answers from the record:
INSERT INTO assay_data (sequencestring, measure, result) VALUES
  ('CGGATGTTGG', 'switch fluorescence ratio', 1.02),
  ('TCTAGCACGG', 'switch fluorescence ratio', 1.06),
  ('TATGCTAGGG', 'switch fluorescence ratio', 0.977),
  ('TTCGTGTTAC', 'switch fluorescence ratio', 1.32),
  ('CCGTGCTTTT', 'switch fluorescence ratio', 1.08),
  ('TGGTCAAAGA', 'switch fluorescence ratio', 0.986);

Tested on ATP: TTGTTGAGGC . Observed switch fluorescence ratio: 1.06

Tested on ATP: CGTTTAACAC . Observed switch fluorescence ratio: 0.997

Tested on ATP: TTTCGGTTTG . Observed switch fluorescence ratio: 1.02

Tested on ATP: AGTGTGAGCT . Observed switch fluorescence ratio: 1

Tested on ATP: TTAAGGGTAT . Observed switch fluorescence ratio: 1

Tested on ATP: GGGTAGGAAG . Observed switch fluorescence ratio: 0.971

Tested on ATP: AAAGGAACAG . Observed switch fluorescence ratio: 1.03

Tested on ATP: GTGAGCTGAT . Observed switch fluorescence ratio: 1.02

====

# Tested on: ATP;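 note: ATP exposure 15 min at 22 °C before imaging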
# procedureText: switch fluorescence ratio, 500 uM ATP over buffer (Cy3 cluster intensity, sum of 5 cycles each) (fold (ratio)); higher = stronger signal-on switching upon ATP binding; sequences stand for … in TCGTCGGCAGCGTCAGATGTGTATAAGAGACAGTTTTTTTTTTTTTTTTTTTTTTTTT…TC
# cond: aptamer strand: ATP DNA aptamer (quencher-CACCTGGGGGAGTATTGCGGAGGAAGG + anchor), 100 nM annealed; ATP concentration: 500 uM
measure: switch fluorescence ratio

INSERT INTO measurements (sequencestring, experimentaltarget, result) VALUES
  ('TTTAAGGCTC', 'ATP', 0.994);

# context switch: different sequence, same switch fluorescence ratio
Tested on ATP: TGACGGCGGA . Observed switch fluorescence ratio: 1.02

====

# System: ATP;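 note: ATP exposure 15 min at 22 °C before imaging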
# procedureText: switch fluorescence ratio, 500 uM ATP over buffer (Cy3 cluster intensity, sum of 5 cycles each) (fold (ratio)); higher = stronger signal-on switching upon ATP binding; sequences stand for … in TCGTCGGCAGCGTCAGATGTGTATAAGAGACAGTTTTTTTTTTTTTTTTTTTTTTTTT…TC
# cond: aptamer strand: ATP DNA aptamer (quencher-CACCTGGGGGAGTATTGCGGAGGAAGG + anchor), 100 nM annealed; ATP concentration: 500 uM
measure: switch fluorescence ratio
Give your answer as a number; write no unit.

INSERT INTO measurements (sequencestring, numericresult) VALUES
  ('TCGAATTTGT', 0.99),
  ('GGAGTCGGGG', 1),
  ('AGTATCCCTA', 0.998),
  ('TATTAGTGAA', 1.01),
  ('TTGAAAAAGT', 0.992);

Measured switch fluorescence ratio, ACTGGCAGC : 1.05

Measured switch fluorescence ratio, TCGTTGCTAG : 0.982

Measured switch fluorescence ratio, ATCTAGGGGA : 1

====

# Tested on: ATP;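 note: ATP exposure 15 min at 22 °C before imaging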
# procedureText: switch fluorescence ratio, 500 uM ATP over buffer (Cy3 cluster intensity, sum of 5 cycles each) (fold (ratio)); higher = stronger signal-on switching upon ATP binding; sequences stand for … in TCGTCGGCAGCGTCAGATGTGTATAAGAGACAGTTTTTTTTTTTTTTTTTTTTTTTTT…TC
# cond: aptamer strand: ATP DNA aptamer (quencher-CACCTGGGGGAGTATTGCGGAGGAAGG + anchor), 100 nM annealed; ATP concentration: 500 uM
measure: switch fluorescence ratio
Give your answer as a number; write no unit.

Tested on ATP: CGGCTTACCC . Observed switch fluorescence ratio: 1.14

====

# Test system: ATP;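 note: ATP exposure 15 min at 22 °C before imaging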
# procedureText: switch fluorescence ratio, 500 uM ATP over buffer (Cy3 cluster intensity, sum of 5 cycles each) (fold (ratio)); higher = stronger signal-on switching upon ATP binding; sequences stand for … in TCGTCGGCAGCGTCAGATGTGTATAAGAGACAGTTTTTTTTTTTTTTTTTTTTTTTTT…TC
# cond: aptamer strand: ATP DNA aptamer (quencher-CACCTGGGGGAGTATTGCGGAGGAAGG + anchor), 100 nM annealed; ATP concentration: 500 uM
Listed here: items and their measured switch fluorescence ratio.
Give your answer as a number; write no unit.

Measured switch fluorescence ratio, GCGACAGGAC : 1.48

Measured switch fluorescence ratio, GAGGTTTCTA : 0.993

Measured switch fluorescence ratio, TTTAGGGAAT : 1

====

# Tested on: ATP;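 note: ATP exposure 15 min at 22 °C before imaging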
# procedureText: switch fluorescence ratio, 500 uM ATP over buffer (Cy3 cluster intensity, sum of 5 cycles each) (fold (ratio)); higher = stronger signal-on switching upon ATP binding; sequences stand for … in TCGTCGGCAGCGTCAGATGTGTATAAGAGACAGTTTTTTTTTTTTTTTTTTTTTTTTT…TC
# cond: aptamer strand: ATP DNA aptamer (quencher-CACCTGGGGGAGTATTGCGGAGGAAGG + anchor), 100 nM annealed; ATP concentration: 500 uM
Listed here: items and their measured switch fluorescence ratio.
Give your answer as a number; write no unit.

Sample answers from the record:
INSERT INTO measurements (sequencestring, experimentaltarget, numericresult) VALUES
  ('TTACGACGAC', 'ATP', 2.21),
  ('AAAAAGCTGA', 'ATP', 0.973),
  ('GGGGAGTTAG', 'ATP', 1.01),
  ('GGGGGGGAAC', 'ATP', 1),
  ('AAGTCTATGG', 'ATP', 1),
  ('TGGGTCACAA', 'ATP', 0.992),
  ('CATAATTGGG', 'ATP', 0.995),
  ('GCATTATTCG', 'ATP', 1.06),
  ('AATTCGCAGT', 'ATP', 1.17),
  ('GAACTTAGAG', 'ATP', 1.02);

Measured switch fluorescence ratio, CGATTGTGCG : 1.04

Measured switch fluorescence ratio, TATAATTTTT : 1.03

Measured switch fluorescence ratio, CCAGATATCA : 0.999

Measured switch fluorescence ratio, ATGAGTTGCG : 0.977

Measured switch fluorescence ratio, GGTTTAAAGA : 1

====

Listed here: items and their measured switch fluorescence ratio.
# Tested on: ATP;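 note: ATP exposure 15 min at 22 °C before imaging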
# procedureText: switch fluorescence ratio, 500 uM ATP over buffer (Cy3 cluster intensity, sum of 5 cycles each) (fold (ratio)); higher = stronger signal-on switching upon ATP binding; sequences stand for … in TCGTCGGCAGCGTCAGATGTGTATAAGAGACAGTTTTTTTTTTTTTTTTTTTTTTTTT…TC
# cond: aptamer strand: ATP DNA aptamer (quencher-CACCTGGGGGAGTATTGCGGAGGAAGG + anchor), 100 nM annealed; ATP concentration: 500 uM
Give your answer as a number; write no unit.

INSERT INTO measurements (sequencestring, numericresult) VALUES
  ('GGTAAATGGG', 0.957),
  ('CAGTTATGCC', 0.988);

Measured switch fluorescence ratio, TTGAAACTCG : 1.06

Measured switch fluorescence ratio, TTTAGGGCGC : 1.05

Measured switch fluorescence ratio, TTAATTAAGT : 0.987

Measured switch fluorescence ratio, AGGGAAGTTA : 1.01

Measured switch fluorescence ratio, GTTAACCAGC : 1.05

Measured switch fluorescence ratio, ACCTGGTGTT : 1.23

Measured switch fluorescence ratio, TAAGGGGACG : 1.02

====

Listed here: items and their measured switch fluorescence ratio.
# Test system: ATP;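 note: ATP exposure 15 min at 22 °C before imaging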
# procedureText: switch fluorescence ratio, 500 uM ATP over buffer (Cy3 cluster intensity, sum of 5 cycles each) (fold (ratio)); higher = stronger signal-on switching upon ATP binding; sequences stand for … in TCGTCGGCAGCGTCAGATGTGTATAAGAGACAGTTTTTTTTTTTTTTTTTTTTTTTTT…TC
# cond: aptamer strand: ATP DNA aptamer (quencher-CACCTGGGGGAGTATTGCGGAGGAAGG + anchor), 100 nM annealed; ATP concentration: 500 uM
Give your answer as a number; write no unit.

INSERT INTO results (sequencestring, experimentaltarget, numericresult) VALUES
  ('ATTTCACGGC', 'ATP', 1.05),
  ('ATAGGTATCT', 'ATP', 0.988),
  ('AGTATGAGTA', 'ATP', 1.01),
  ('CTCGGTTTTT', 'ATP', 0.989),
  ('GCAGGGGTTT', 'ATP', 1.25),
  ('GCAGGGTCTG', 'ATP', 1.02);

Measured switch fluorescence ratio, CACTGCTTTT : 0.992

Measured switch fluorescence ratio, CGTTGGGTGG : 1.02

Measured switch fluorescence ratio, AGTCCGGACC : 0.967

Measured switch fluorescence ratio, TGTTATGGGT : 1.04

Measured switch fluorescence ratio, TTCATATTCA : 1.01

Measured switch fluorescence ratio, GGGGGTCAAT : 1.02

Measured switch fluorescence ratio, TAAAAGATTT : 1.01

Measured switch fluorescence ratio, TTCTTTGGGG : 1.04

Measured switch fluorescence ratio, AAGCGCCCGG : 1.05

Measured switch fluorescence ratio, AAGAAACACA : 1.02

Measured switch fluorescence ratio, TATTTGGATA : 1.05

Measured switch fluorescence ratio, ATAGTTGGGA : 1.02

Measured switch fluorescence ratio, GTGCAACTAC : 2.93

Measured switch fluorescence ratio, GGATGTTTAG : 1.02
